Assay method text: AUClast in Wistar rat at 10 mg/kg, ip measured upto 24 hrs by LC-MS/MS analysis
Format: ADME, organism-based
Applied conditions: in vivo
Measured endpoint: AUC(0-t) at 24 h (ng·h/mL)

* O=C1CO[C@H]2CCN(C(=O)N3CCC(Cc4ccc(C(F)(F)F)cc4)CC3)C[C@H]2N1 | 40200

---

Assay method text: Plasma protein binding in human assessed as fraction unbound by equilibrium dialysis based LC-MS/MS method
Assay type: ADME, cell-free
In this section we review reported fraction unbound values for a set of compounds.
Measured endpoint: fraction unbound

- O=C1CO[C@H]2CCN(C(=O)N3CCC(Cc4ccc(C(F)(F)F)cc4)CC3)C[C@H]2N1: 0.043
- O=C1COc2ccc(C(=O)N3CCC(Cc4ccc(C(F)(F)F)cc4)CC3)cc2N1: 0.005

---

Assay method text: Bioavailability in Wistar rat at 10 mg/kg, ip measured upto 24 hrs by LC-MS/MS analysis
Assay type: ADME, organism-based
Applied conditions: in vivo
Measured endpoint: bioavailability (%)

• O=C1CO[C@H]2CCN(C(=O)N3CCC(Cc4ccc(C(F)(F)F)cc4)CC3)C[C@H]2N1 = 111

---

Assay method text: Tmax in Wistar rat at 5 mg/kg, po measured upto 24 hrs by LC-MS/MS analysis
Assay type: ADME, organism-based
Applied conditions: in vivo
Measured endpoint: Tmax (h)

- O=C1CO[C@H]2CCN(C(=O)N3CCC(Cc4ccc(C(F)(F)F)cc4)CC3)C[C@H]2N1: 6

---

Assay method text: Half-life in Wistar rat at 10 mg/kg, ip […] by LC-MS/MS analysis
Type: ADME, organism-based
Applied conditions: in vivo
Measured endpoint: half-life (h)

* O=C1CO[C@H]2CCN(C(=O)N3CCC(Cc4ccc(C(F)(F)F)cc4)CC3)C[C@H]2N1 | 2.7

---

Assay method text: Clearance in Wistar rat at 1 mg/kg, iv measured upto 24 hrs by LC-MS/MS analysis
Assay type: ADME, organism-based
Applied conditions: in vivo
Measured endpoint: clearance (mL/min/kg)

• O=C1CO[C@H]2CCN(C(=O)N3CCC(Cc4ccc(C(F)(F)F)cc4)CC3)C[C@H]2N1 = 4.6

---

Target system: Monoglyceride lipase (Homo sapiens)
Sequence (Q99685 whole entry): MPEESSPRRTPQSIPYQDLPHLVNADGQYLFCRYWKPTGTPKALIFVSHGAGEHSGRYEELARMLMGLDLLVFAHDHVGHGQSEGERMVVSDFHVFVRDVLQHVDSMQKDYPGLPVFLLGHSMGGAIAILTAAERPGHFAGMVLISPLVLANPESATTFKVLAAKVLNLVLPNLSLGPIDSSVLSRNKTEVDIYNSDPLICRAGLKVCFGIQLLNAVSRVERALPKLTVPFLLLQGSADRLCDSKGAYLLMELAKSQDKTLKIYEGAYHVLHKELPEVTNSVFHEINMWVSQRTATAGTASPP
Assay method text: Inhibition of human MAGL using native substrate by Rapidfire MS assay
Applied conditions: read-out: IC50
Measured endpoint: IC50 (nM)

- O=C1C[C@H]2CCN(C(=O)N3CCC(Cc4ccc(C(F)(F)F)cc4)CC3)C[C@H]2N1: 569
- O=C1CSc2ccc(C(=O)N3CCC(Cc4ccc(C(F)(F)F)cc4)CC3)cc2N1: 2500
- O=C1COc2ccc(C(=O)N3CCC(Cc4cccc(F)c4)CC3)cc2N1: 51
- O=C1CO[C@H]2CCN(C(=O)N3CCC(Cc4ccc(C(F)(F)F)cc4)CC3)C[C@H]2N1 (racemic): 65
- O=C1COc2ccc(C(=O)N3CCC(c4c[nH]c5ccccc45)CC3)cc2N1: 37
- O=C1CO[C@H]2CCN(C(=O)N3CCC(Cc4ccc(C(F)(F)F)cc4)CC3)C[C@H]2N1: 32
- O=C1CO[C@H]2CCN(C(=O)N3CCC(Cc4ccc(C(F)(F)F)cc4)CC3)C[C@@H]2N1 (racemic): 370
- O=C1COc2ccc(C(=O)N3CCC(Cc4ccc(F)cc4)CC3)cc2N1: 62
- O=C1COc2ccc(C(=O)N3CCC(Cc4ccc(C(F)(F)F)cc4)CC3)cc2N1: 32
